assay: Cytotoxic assay (resazurin); conditions: human, HaCaT normal epidermal keratinocytes
MEASURE_NAME: IC50 at 48 h (µM)
Give the value in µM but do not write µM after it.

Q: State its IC50 at 48 h: "CC(=O)Nc1ccc2c(c1)C(=O)/C(=C/c1ccc(OC(C)C)cc1)O2"
A: 323

###

test: Cytotoxic assay (resazurin); details: human, Caco-2
MEASURE_NAME: IC50 at 48 h (µM)
Field format: number, assumed µM, no unit text.

Q: Return the recorded IC50 at 48 h value; entry: CC(=O)Nc1ccc2c(c1)C(=O)/C(=C/c1ccc(OC(C)C)cc1)O2 [Compound 20]
A: 186

###

tested on: human cells (A498, BEAS-2B, Caco-2, HaCaT, HepG2, IMR-90); assay: Cytotoxic assay, summary over the six human cell types; settings: highest CC50 on human cells divided by MIC on S. aureus
MEASURE_NAME: Highest TI
Answer with the value's number alone.

CC(=O)Nc1ccc2c(c1)C(=O)/C(=C/c1cccc(OCc3ccccc3)c1)O2 [Compound 10]    37.7
Nc1ccc2c(c1)C(=O)/C(=C/c1cccc(Oc3ccccc3)c1)O2 [Compound 16]    18.0

Q: Look up and state reported Highest TI for Nc1ccc2c(c1)C(=O)/C(=C/c1cccc(OCc3ccccc3)c1)O2 [Compound 12]
A: 3.4

###

assay: Cytotoxic assay (resazurin); settings: human, A498 kidney epithelial cells
CC50 at 48 h listing for selected compounds.
Give just the number in µM; leave the unit off.

Nc1ccc2c(c1)C(=O)/C(=C/c1cccc(Oc3ccccc3)c1)O2    452
Nc1ccc2c(c1)C(=O)/C(=C/c1cccc(OCc3ccccc3)c1)O2    152

Q: State its CC50 at 48 h: "CC(=O)Nc1ccc2c(c1)C(=O)/C(=C/c1cccc(OCc3ccccc3)c1)O2"
A: 398

Q: Answer with the recorded CC50 at 48 h for the compound listed here: "CC(=O)Nc1ccc2c(c1)C(=O)/C(=C/c1ccc(Oc3ccccc3)cc1)O2"
A: 146

Q: Fill in reported CC50 at 48 h for this entry: "CC(=O)Nc1ccc2c(c1)C(=O)/C(=C/c1ccc(OC(C)C)cc1)O2"
A: 453

###

assay: Cytotoxic assay (resazurin); conditions: human, Caco-2
Below, each entry is listed alongside its reported CC50 at 48 h.
Please give a number only; it is taken to be in µM.

These solved cases illustrate the format of a correct answer.
CC(=O)Nc1ccc2c(c1)C(=O)/C(=C/c1ccc(Oc3ccccc3)cc1)O2    137
CC(=O)Nc1ccc2c(c1)C(=O)/C(=C/c1cccc(OCc3ccccc3)c1)O2    200
Nc1ccc2c(c1)C(=O)/C(=C/c1cccc(Oc3ccccc3)c1)O2    132

Q: Please indicate CC50 at 48 h recorded for "Nc1ccc2c(c1)C(=O)/C(=C/c1cccc(OCc3ccccc3)c1)O2"
A: 112

Q: Provide measured CC50 at 48 h value, entry: "CC(=O)Nc1ccc2c(c1)C(=O)/C(=C/c1ccc(OC(C)C)cc1)O2"
A: 186

###

CC50 at 48 h values, listed per item
assay: Cytotoxic assay (resazurin); conditions: human, HaCaT normal epidermal keratinocytes
Write the answer as a number in µM, unit excluded.

Solved cases (3 shown):
CC(=O)Nc1ccc2c(c1)C(=O)/C(=C/c1cccc(OCc3ccccc3)c1)O2 [Compound 10]    268
CC(=O)Nc1ccc2c(c1)C(=O)/C(=C/c1ccc(OC(C)C)cc1)O2 [Compound 20]    323
Nc1ccc2c(c1)C(=O)/C(=C/c1cccc(Oc3ccccc3)c1)O2 [Compound 16]    80.4

The record that follows has no CC50 at 48 h shown yet.
Q: Return the recorded CC50 at 48 h value; entry: Nc1ccc2c(c1)C(=O)/C(=C/c1cccc(OCc3ccccc3)c1)O2 [Compound 12]
A: 51.3

###

assay: Cytotoxic assay (resazurin); settings: human, HepG2 liver cells
MEASURE_NAME: IC50 at 48 h

Q: Name the recorded IC50 at 48 h of the compound listed here: "CC(=O)Nc1ccc2c(c1)C(=O)/C(=C/c1ccc(OC(C)C)cc1)O2"
A: > 500 µM

###

assay: Cytotoxic assay, summary over the six human cell types; details: human, Mean CC50, mean over the six human cell types, 48 h exposure
MEASURE_NAME: CC50 at 48 h (µM)
Answer format: numeric, µM implied, no suffix.

Please review the entries below; each comes with its answer.
Nc1ccc2c(c1)C(=O)/C(=C/c1cccc(OCc3ccccc3)c1)O2 [Compound 12]    129
Nc1ccc2c(c1)C(=O)/C(=C/c1cccc(Oc3ccccc3)c1)O2 [Compound 16]    218

Continue with the molecule presented below.
Q: Please indicate CC50 at 48 h recorded for CC(=O)Nc1ccc2c(c1)C(=O)/C(=C/c1cccc(OCc3ccccc3)c1)O2 [Compound 10]
A: 322

###

experiment: Cytotoxic assay, summary over the six human cell types; settings: human, Lowest CC50, lowest of the six human cell types, 48 h exposure
# condition met = CC50 at 48 h below 100 µM (exclusive); condition not met = CC50 at 48 h at/above 100 µM

CC(=O)Nc1ccc2c(c1)C(=O)/C(=C/c1cccc(OCc3ccccc3)c1)O2    condition not met
Nc1ccc2c(c1)C(=O)/C(=C/c1cccc(Oc3ccccc3)c1)O2    condition met
Nc1ccc2c(c1)C(=O)/C(=C/c1cccc(OCc3ccccc3)c1)O2    condition met
CC(=O)Nc1ccc2c(c1)C(=O)/C(=C/c1ccc(Oc3ccccc3)cc1)O2    condition not met

Kindly review the next molecule as well.
Q: Answer whether the molecule "CC(=O)Nc1ccc2c(c1)C(=O)/C(=C/c1ccc(OC(C)C)cc1)O2" has CC50 at 48 h strictly less than 100 µM
A: condition not met

###

assay: Cytotoxic assay (resazurin); details: human, HepG2 liver cells
Measured CC50 at 48 h accompanies every entry in the list below.
Respond numerically; units are µM and should not be typed.

Would you please look over these solved cases?
Nc1ccc2c(c1)C(=O)/C(=C/c1cccc(Oc3ccccc3)c1)O2 [Compound 16]    398
Nc1ccc2c(c1)C(=O)/C(=C/c1cccc(OCc3ccccc3)c1)O2 [Compound 12]    343

Then there is this compound:
Q: Respond only with CC50 at 48 h recorded for CC(=O)Nc1ccc2c(c1)C(=O)/C(=C/c1cccc(OCc3ccccc3)c1)O2 [Compound 10]
A: 472

###

Listed below: CC50 at 48 h values for each entry.
assay: Cytotoxic assay (resazurin); conditions: human, BEAS-2B normal lung epithelial cells
Use µM as the unit, but write only the number.

Here are 4 molecules together with their reported answers.
CC(=O)Nc1ccc2c(c1)C(=O)/C(=C/c1cccc(OCc3ccccc3)c1)O2 [Compound 10]    169
CC(=O)Nc1ccc2c(c1)C(=O)/C(=C/c1ccc(Oc3ccccc3)cc1)O2 [Compound 15]    110
CC(=O)Nc1ccc2c(c1)C(=O)/C(=C/c1ccc(OC(C)C)cc1)O2 [Compound 20]    126
Nc1ccc2c(c1)C(=O)/C(=C/c1cccc(OCc3ccccc3)c1)O2 [Compound 12]    74.6

Q: Supply measured CC50 at 48 h of Nc1ccc2c(c1)C(=O)/C(=C/c1cccc(Oc3ccccc3)c1)O2 [Compound 16] in your reply.
A: 130

###

test: Cytotoxic assay (resazurin); settings: human, IMR-90 normal lung fibroblasts
MEASURE_NAME: CC50 at 48 h

CC(=O)Nc1ccc2c(c1)C(=O)/C(=C/c1ccc(Oc3ccccc3)cc1)O2 [Compound 15]    > 500 µM
Nc1ccc2c(c1)C(=O)/C(=C/c1cccc(Oc3ccccc3)c1)O2 [Compound 16]    116 µM
CC(=O)Nc1ccc2c(c1)C(=O)/C(=C/c1cccc(OCc3ccccc3)c1)O2 [Compound 10]    421 µM

Q: For the molecule Nc1ccc2c(c1)C(=O)/C(=C/c1cccc(OCc3ccccc3)c1)O2 [Compound 12] , give its measured CC50 at 48 h value.
A: 42.4 µM

Q: Tell me CC50 at 48 h reported for CC(=O)Nc1ccc2c(c1)C(=O)/C(=C/c1ccc(OC(C)C)cc1)O2 [Compound 20]
A: 438 µM

###

The reader will find reported CC50 at 48 h values listed item by item below.
assay: Cytotoxic assay, summary over the six human cell types; conditions: human, Highest CC50, highest of the six human cell types, 48 h exposure
I only need the number, in µM, no unit after it.

Observe how each entry below is paired with its result.
CC(=O)Nc1ccc2c(c1)C(=O)/C(=C/c1cccc(OCc3ccccc3)c1)O2 [Compound 10]    472
Nc1ccc2c(c1)C(=O)/C(=C/c1cccc(OCc3ccccc3)c1)O2 [Compound 12]    343

Kindly review the next compound as well.
Q: Give recorded CC50 at 48 h. Nc1ccc2c(c1)C(=O)/C(=C/c1cccc(Oc3ccccc3)c1)O2 [Compound 16]
A: 452

###

MEASURE_NAME: melting point

Q: Indicate the recorded melting point value for this molecule: "CC(C)Oc1ccc(/C=C2\Oc3ccc(N)cc3C2=O)cc1"
A: > 350 °C

Q: Consider the molecule "CC(=O)Nc1ccc2c(c1)C(=O)/C(=C/c1ccc(OCc3ccccc3)cc1)O2" and give its recorded melting point.
A: 212.8 °C

Q: Item "Nc1ccc2c(c1)C(=O)/C(=C/c1cccc(C(F)(F)F)c1)O2" : provide melting point
A: > 350 °C

Q: Provide one value: measured melting point of "Nc1ccc2c(c1)C(=O)/C(=C/c1ccc(F)cc1)O2"
A: 164.4 °C

Q: Query melting point for "CC(=O)Nc1ccc2c(c1)C(=O)/C(=C/c1cccc(Oc3ccccc3)c1)O2"
A: 196.4 °C

Q: Indicate its recorded melting point; the molecule in question is "Nc1ccc2c(c1)C(=O)/C(=C/c1ccc(Oc3ccccc3)cc1)O2"
A: 170.6 °C
